Tested on: MS2 coat protein
procedure.details: apparent KD of MS2 coat protein, switch OFF state (with FMN for OFF switches, without FMN for ON switches); designed switch direction (-1 OFF switch, 1 ON switch): -1; higher = weaker reporter binding
assay.conditions: FMN input: 0 or 200 uM; Eterna round: R93 (includes R88 designs)
Record Met whenever apparent KD of MS2 coat protein is at 30 nM or higher; record Not met when lower.

AAAACGUGAGGAUAUGCACCAAAAAAGGUAAUUCGGGUACGACAUGAGGAUCACCCAUGUAGAAGGCACGAAAA [Frodo Flailing 12 - Jieux - Exclusion 2] ... Not met
GAAAAGUGAGGAUAUACAUGAGGAUCACCCAUGUGUAUAAAAAAUUACACAAAAGAAAGUAGAAGGCACUAAAA [Mat - Exclusion 3 - Mayanna mod - D114] ... Not met
CUCAUGUCAGGAUAUGUCAAAAGUCACAAAAGUGACAAAAGACAGAAGGGACAUGAGGAUCACCCAUGUAAAAA [Starry Exclusion 4.6 (starryjess round 1 mod)] ... Not met
AAAAGACAUGAGGAUCACCCAUGUGAGGAUAUCGGAAAAGGAAAAAAAAAAAAGAAGACGAGAAGGCACACCAA ... Met
GAAAAACAUGAGGAUCACCCAUGUUAGGAUAUGCUAUGGAAAAAUAAAAUAAAACAUAGCAGAAGGGACAAAAG [Mat - Exclusion 1 - Eli mod - D29] ... Met

Please check the record CCUAAGAAAGGAUAUACACCGGUGAACCGCUGAAAUCAGCAACAUGAGGAUCACCCAUGUAGAAGGUUUAUGGG [Erusqu] and state if its apparent KD of MS2 coat protein is at or above 30 nM.
Met

State whether the measured apparent KD of MS2 coat protein reaches 30 nM, counting equality as reaching it, for GAAAAACAUGAGGAUCACCCAUGUAAGGAUAUGCGAAAAUAAAAUAAAAUAAAAUAAAGCAGAAGGUACAAAAG [Mat - Exclusion 1 - Eli mod - D2]
Met

Would you say AACAGUACAGGAUAUACAUGAGGAUCACCCAUGUGGGAAUUAAGUGGCGUACCACAAUGUAGAAGGGUACUGGA [JL In the Red] shows apparent KD of MS2 coat protein at minimum 30 nM?
Met

Kindly determine if apparent KD of MS2 coat protein recorded for AAAAAACAUGAGGAUCACCCAUGUAAGGAUAUGCAAGCAAGAAGAAAGAACAGAAAAAGCAGAAGGUACAAAAA [Amethyst 72] is above or exactly 30 nM.
Met

apparent KD of MS2 coat protein >= 30 nM for AACAAGUGAGGAUAUCGGAAAUGUAAAUAAGUUUCACAAAACGAGAAGGCACAUGAGGAUCACCCAUGUAAAUA [JR_Exc004_Sub013] ?
Not met

====

System: MS2 coat protein
procedure.details: apparent KD of MS2 coat protein; designed switch direction (-1 OFF switch, 1 ON switch): 1; higher = weaker reporter binding
assay.conditions: input ligand: none
observable: apparent KD of MS2 coat protein (nM)
Quick reminder: number only, in nM, skip the unit.

Use the examples below as a reference point.
AGCUAUUAAUCAGGAUAUGGUCACAUGAGGAUCACCCAUGUAUAGAUGAUAAAAUGUGGUCAAUACUAGAAGGGAUUGCUAACA [SameState NG2 #63] (Eterna round: R96, puzzle: Same State NG 2) ... 386
GUUACAUGAGGAUCACCCAUGUAUGUGUGGGAGUAAGUGUCUUAGGAUAUCUGUUAUGUAAUUUAAGAGAAGGAAGAUUGUUGU [JMF's solution 34] (Eterna round: R96, puzzle: Same State NG 3) ... 296
UCUUGGUUUUUGCUCGUUUUUUGUGUUGAACAUGAGGAUCACCCAUGUAUUGUACAAUCCGGUUUGAUGAUGGUCCA [JMF 47] (Eterna round: R96, puzzle: Sensor for hsa-mir-208a) ... 115
CGCGGUAAGGAAGGAUAUGGGACGAAAACGUACCUAGAAGGUCCACAUGAGGAUCACCCAUGUACCAAGAAAGCCGCUCAAUUA [Uszabeon] (Eterna round: R96, puzzle: Same State NG 1) ... 334

For the next question, use this sequence.
Reported apparent KD of MS2 coat protein for CUGAGCGAUCGAGGAUAUCACGUCGAUUAGACGUGAGAAGGCGAUCAUAACAUGAGGAUCACCCAUGUAUUACAUGAAGCUCAG [SSNG1/4-A2] (Eterna round: R96, puzzle: Same State NG 1) was 15.8

====

Test system: MS2 coat protein
procedure.details: apparent KD of MS2 coat protein; higher = weaker reporter binding
assay.conditions: Eterna round: R107; input ligand: theophylline 20 uM
observable: apparent KD of MS2 coat protein (nM)
Write down the numeric answer in nM and omit the unit.

GGGAAAGAAUGUGAUACCAGAGAACCGGUCUCCAUCAAUAUACAUGAGGAUCACCCAUGUCUCCCUUGGCAGCACCAUCAUCAAA [Exclusion Theophylline B GF 27] ... 28.3
GGUGGCGGGACUGAUACCAGCCACCACCGAUAGACCACAUGAGGAUCACCCAUGUUGGGUGGCCCUUGGCAGCAGUCUUGCGGCG [#1 Same State - Theophylline B Attempt #15 (HarryS)] ... 491
UAUCGUCAGACGGCCGCCACUAGAACAUGAGGAUCACCCAUGUAAGUGGCCGGUCUCCUCAUGACUAGGACCGGGUCUGACGAAU [(Trp1)-(Ms2)-(T)'-(M)'-(Trp2)_Design18] ... 14.1
UGACAGAUAACCGCUGGUGCUCUUGAGUUGCGAGGACCGGUACGGCCGCCACUCGACAACAUGAGGAUCACCCAUGUUGCGGGUC [Soleeror] ... 89.5

Let me check: ACUGGACAUGAGGAUCACCCAUGUGGCGAUACCAGUUUCAGCGGGAACCCUUGGCAGCGCGGUGCCGGCCAUAGAAGUUCUGGGA [theeternabot_sameState_MS2_Theo_A_39] , system MS2 coat protein, measured apparent KD of MS2 coat protein is 56.1

====

System: MS2 coat protein
procedure.details: apparent KD of MS2 coat protein; designed switch direction (-1 OFF switch, 1 ON switch): -1; higher = weaker reporter binding
assay.conditions: input ligand: none
Known apparent KD of MS2 coat protein of a selection of sequences
Enter the number, and then the unit.

Below are worked cases with known answers.
UUGAUUGGUGUAGGAUAUGUAUGAGGAUCACCCAUUAAUAAAUUUUAACCACGAGGAUCACCCGUGUAGAAGGACAUUGGUUAU [pwkr exNG2 2xF5 1xFMN.21] (Eterna round: R96, puzzle: Exclusion NG 2) ... 59.3 nM
UUAUUAUAUGUAGGAUAUGCAUAUUGUUGUUAUGCAGAAGGACAUGAGGAUCACCCAUGUAUAUUAUUGUUGUGUAUUAUAUAU [Title] (Eterna round: R96, puzzle: Exclusion NG 1) ... 33 nM
GGUCCACAUGAGGAUCACCCAUGUAAUAACAUGCAGCGCAGGAAGGAUAUGCCCGAACAAAGCCAGCAGAAGGUCCAUUAACAU [Eternabot solution 7] (Eterna round: R96, puzzle: Exclusion NG 3) ... 128 nM
UUUAACAGAGGAUAUGCGAAUAAAUAAAACUUUUUUUUUUAACAUGAGGAUCACCCAUGUAGAAGGCUGAUAUU [Ex2 #23] (Eterna round: R97, puzzle: Exclusion 2) ... 29.9 nM

Now, please, on to the next sequence.
Test item UCCUCACAUGAGGAUCACCCAUGUGAGGAUAUCAUGCUUCGUAGUAAACUACGAAGUGUGAGAAGGCGCAUGGC [Omei Ex1 D16] (Eterna round: R97, puzzle: Exclusion 1) ; MS2 coat protein; reported apparent KD of MS2 coat protein was 16.2 nM

====

// values below are reported apparent KD of MS2 coat protein
Tested on: MS2 coat protein
procedure.details: apparent KD of MS2 coat protein; higher = weaker reporter binding
assay.conditions: Eterna round: R107; input ligand: arginine 13.2 mM
Quote the value and follow it with the unit of measurement.

Example cases with answers are listed next.
CGAAUAUAGACGGCCGCCACUCUACAAACAUGAGGAUCACCCAUGUUCACAUAGUGGAAACACAUGAGGACCGGGUCAUAGGCAU [#18 Same State - Tryptophan B] ... 19.2 nM
AAUUCCUAACAUGAGGAUCACCCAUGUGAAGGAGCGCCGAAUAAGGCAGGUAGGUCGCACAUGGAACUGCUACGAAAGUAGAAAA [XArg-A 4 V2mod] ... 19.2 nM

In the following, a different sequence is considered.
// assay MS2 coat protein, entry UGUAUGGACUGAAGGAGCGGGUUGAUAACCUGAGGAUCAUCCAGGUAAAAGGCGAAAGCCGCCCAGGUAGGUCGCAGUCCAUACU , apparent KD of MS2 coat protein value = 174 nM

====

Test system: MS2 coat protein
procedure.details: apparent KD of MS2 coat protein; higher = weaker reporter binding
assay.conditions: Eterna round: R107; input ligand: tryptophan 2.4 mM
observable: apparent KD of MS2 coat protein (nM)
Output spec: scalar in nM, unitless text.

Per the records, this sequence ( UCUUGGUCCGCAAGGACCUUGAGUUGCGAUACCAGCACGGUAACGUGCCCUUGGCAGCGCACAUGAGGAUCACCCAUGUGGUGUU [#1 Exclusion - Theophylline A Attempt #16 (HarryS)] ) has apparent KD of MS2 coat protein equal to 170

get_value(item= UUCAAAGGGAACGGUGCUGGUAGCAGAGAUACCAGAGUAAUGAUACUCCCUUGGCAGCUCAGUACAUGAGGAUCACCCAUGUAAU [Exclusion Theophylline A GF24] , readout=apparent KD of MS2 coat protein) returns 15.1

Please fill in: apparent KD of MS2 coat protein reported for UUUUUCGUAGGUUAAAGUUUAGAAACUGAAGGAGCGUGGUAAUACACAGGUAGGUCGCAGAUUUUACAUGAGGAUCACCCAUGUU [JR_ExcArginiA_Sub012] = 21.1

ACGGGCAUGGCGGCCGCCACUGGUUGGCGUGCGGAUGAGGGAACAUGAGGAUCACCCAUGUUGGUUAGGACCGGGCUGGCGUCGA [kkymullin] yielded apparent KD of MS2 coat protein of 18

The reported apparent KD of MS2 coat protein of the sequence AUACCUAAUGUUACAUUUACCUUAUCAGAUACCAGACUUUACGUUGUCCCUUGGCAGCUGUAUCACAUGAGGAUCACCCAUGUUG [JR_SSTheophyA_Sub010] was 15.3

apparent KD of MS2 coat protein reported for this sequence GCGAUGGAGCGAAGGAGCGUGCUGGUACAUGAGGAUCACCCAUGUGAACCGCAGCGCUAAGCACAGGUAGGUCGCGCUCCAUCGC [EAB NP+V+V2 #14] : 41.9

Noted for GACAUGAGGAUCACCCAUGUACCGCGAGAAGGAGCGCGGAUAAACGCAGGUAGGUCGCUCGUGGGCUUAUAUUCAAUUGUAAGCU [Usence] : its apparent KD of MS2 coat protein reads 30.4

Per the records, this sequence ( ACAUGAGGAUCACCCAUGUAACAAACAGAAGGAGCGUGAAAGAACACAGGUAGGUCGCUGAACUUAAUGAAUACUCAUUAGAUCC [JR_Nu_SSArginiA_Sub027] ) has apparent KD of MS2 coat protein equal to 14.6

The sequence listed as CACGGAUGAGUGGAUCACCCUCAUAAUAACCGAGGACCGGUACGGCCGCCACUCGAAAACCGUGACCUGUACGAAAAGUGCAGGA shows apparent KD of MS2 coat protein equal to 708

Just so you know, measured apparent KD of MS2 coat protein for UGAGAUCCUCAUGAUACCAGUGUACUACAUGAGGAUCACCCAUGUAGCAACAUCUGUAGACACCCUUGGCAGCAUGAGACCACGU [Theo B SS t5] came out at 15.6

Documented apparent KD of MS2 coat protein of UGUAUGGACUGAAGGAGCGGGUUGAUAAUCUGAGGAUCACCCAGGUAAAAGGCGAAAGCCGCCCAGGUAGGUCGCAGUCCAUACU : 33.4

For reference, reported apparent KD of MS2 coat protein for AUUAUCAUGGUCAUUUAUAUUUCGUCAGAUACCAGACUAGAUAUAGUCCCUUGGCAGCUGUUACAUGAGGAUCACCCAUGUUAUU [JR_ExcTheophyA_Sub018] stands at 103
